Organism: Cavia porcellus
Test: Left ventricular pressure of isolated guinea pig heart at dose 5 (ug/heart)
Type: functional, Cardiac ventricle
measured parameter: LVP (mmHg)
One number for each entry, in mmHg.

COc1ccc(CCN(C)CCCC2(C#N)c3ccccc3-c3ccccc32)cc1OC.O=C(O)C(=O)O    39.5
COc1ccc(CCN(C)CCCC(c2ccccc2)(c2ccccc2)C(C)C)cc1OC.O=C(O)C(=O)O    65.3
COc1ccc(CCN(C)CCCC2c3ccccc3-c3ccccc32)cc1OC.O=C(O)C(=O)O    89.3
COc1ccc(CCN(C)CCCC(C#N)(c2ccccc2)c2ccccc2)cc1OC.[O-][Cl+3]([O-])([O-])O    26.8
COc1ccc(CCN(C)CCC=C(c2ccccc2)c2ccccc2)cc1OC.O=C(O)C(=O)O    75.7
COc1ccc(CCN(C)CCCC(c2ccccc2)c2ccccc2)cc1OC.O=C(O)C(=O)O    66.7
COc1ccc(CCN(C)C/C=C/C2(C(C)C)c3ccccc3-c3ccccc32)cc1OC.O=S(=O)(O)O    43.2
COc1ccc(CCN(C)CCCC2(C(C)C)c3ccccc3-c3ccccc32)cc1OC.O=S(=O)(O)O    36

Return reported LVP values for all items listed beneath this line.
1. COc1ccc(CCN(C)CCCC2(C#N)c3ccccc3-c3ccccc32)cc1OC.[O-][Cl+3]([O-])([O-])O
2. COc1ccc(CCN(C)CCCC(C#N)(c2ccc(OC)c(OC)c2)C(C)C)cc1OC (stereo unspecified)

[38.5, 13]

Which LVP reading was recorded for the molecule `COc1ccc(CCN(C)CCC=C2c3ccccc3-c3ccccc32)cc1OC.O=C(O)C(=O)O` ?
54

----------
Species on record: Cavia porcellus
Assay: Heart rate of isolated guinea pig heart at dose 0.05 (ug/heart)
Assay type: functional
measured parameter: HR (beats min-1)
Numbers only, in beats min-1.

A selection of reference data follows.
COc1ccc(CCN(C)CCCC2c3ccccc3-c3ccccc32)cc1OC.O=C(O)C(=O)O    150
COc1ccc(CCN(C)CCC=C2c3ccccc3-c3ccccc32)cc1OC.O=C(O)C(=O)O    210
COc1ccc(CCN(C)C/C=C/C2(C(C)C)c3ccccc3-c3ccccc32)cc1OC.O=S(=O)(O)O    177.8
COc1ccc(CCN(C)CCCC2(C#N)c3ccccc3-c3ccccc32)cc1OC.O=C(O)C(=O)O    209.7
COc1ccc(CCN(C)CCC=C(c2ccccc2)c2ccccc2)cc1OC.O=C(O)C(=O)O    150

Return reported HR values for all items listed beneath this line.
1. COc1ccc(CCN(C)CCCC(c2ccccc2)(c2ccccc2)C(C)C)cc1OC.O=C(O)C(=O)O
2. COc1ccc(CCN(C)CCCC(C#N)(c2ccccc2)c2ccccc2)cc1OC.[O-][Cl+3]([O-])([O-])O
3. COc1ccc(CCN(C)CCCC(C#N)(c2ccc(OC)c(OC)c2)C(C)C)cc1OC (stereo unspecified)
4. COc1ccc(CCN(C)CCCC2(C#N)c3ccccc3-c3ccccc32)cc1OC.[O-][Cl+3]([O-])([O-])O

154.7
160.2
203.8
208

Return reported HR values for all items listed beneath this line.
1. COc1ccc(CCN(C)CCCC2(C(C)C)c3ccccc3-c3ccccc32)cc1OC.O=S(=O)(O)O
2. COc1ccc(CCN(C)CCCC(c2ccccc2)c2ccccc2)cc1OC.O=C(O)C(=O)O

1. 209
2. 152

----------
Species: Cavia porcellus
Test: Heart rate of isolated guinea pig heart at dose 0.005 (ug/heart)
Type: functional
measured parameter: HR (beats min-1)
Numbers only, in beats min-1.

A selection of reference data follows.
COc1ccc(CCN(C)CCCC(C#N)(c2ccc(OC)c(OC)c2)C(C)C)cc1OC (stereo unspecified)    210
COc1ccc(CCN(C)CCC=C2c3ccccc3-c3ccccc32)cc1OC.O=C(O)C(=O)O    210
COc1ccc(CCN(C)CCCC2c3ccccc3-c3ccccc32)cc1OC.O=C(O)C(=O)O    150

Return reported HR values for all items listed beneath this line.
1. COc1ccc(CCN(C)C/C=C/C2(C(C)C)c3ccccc3-c3ccccc32)cc1OC.O=S(=O)(O)O
2. COc1ccc(CCN(C)CCC=C(c2ccccc2)c2ccccc2)cc1OC.O=C(O)C(=O)O
3. COc1ccc(CCN(C)CCCC(C#N)(c2ccccc2)c2ccccc2)cc1OC.[O-][Cl+3]([O-])([O-])O
4. COc1ccc(CCN(C)CCCC2(C(C)C)c3ccccc3-c3ccccc32)cc1OC.O=S(=O)(O)O

1: 182.6; 2: 150; 3: 162; 4: 211

Return reported HR values for all items listed beneath this line.
1. COc1ccc(CCN(C)CCCC(c2ccccc2)c2ccccc2)cc1OC.O=C(O)C(=O)O
2. COc1ccc(CCN(C)CCCC2(C#N)c3ccccc3-c3ccccc32)cc1OC.O=C(O)C(=O)O
3. COc1ccc(CCN(C)CCCC(c2ccccc2)(c2ccccc2)C(C)C)cc1OC.O=C(O)C(=O)O
4. COc1ccc(CCN(C)CCCC2(C#N)c3ccccc3-c3ccccc32)cc1OC.[O-][Cl+3]([O-])([O-])O

152
211.5
155.3
213
